# SYSTEM_TESTED: M. smegmatis AddAB (Mycolicibacterium smegmatis, UniProt A0QTR9+A0QTS0)
# Sequence (A0QTS0 entry or part of it): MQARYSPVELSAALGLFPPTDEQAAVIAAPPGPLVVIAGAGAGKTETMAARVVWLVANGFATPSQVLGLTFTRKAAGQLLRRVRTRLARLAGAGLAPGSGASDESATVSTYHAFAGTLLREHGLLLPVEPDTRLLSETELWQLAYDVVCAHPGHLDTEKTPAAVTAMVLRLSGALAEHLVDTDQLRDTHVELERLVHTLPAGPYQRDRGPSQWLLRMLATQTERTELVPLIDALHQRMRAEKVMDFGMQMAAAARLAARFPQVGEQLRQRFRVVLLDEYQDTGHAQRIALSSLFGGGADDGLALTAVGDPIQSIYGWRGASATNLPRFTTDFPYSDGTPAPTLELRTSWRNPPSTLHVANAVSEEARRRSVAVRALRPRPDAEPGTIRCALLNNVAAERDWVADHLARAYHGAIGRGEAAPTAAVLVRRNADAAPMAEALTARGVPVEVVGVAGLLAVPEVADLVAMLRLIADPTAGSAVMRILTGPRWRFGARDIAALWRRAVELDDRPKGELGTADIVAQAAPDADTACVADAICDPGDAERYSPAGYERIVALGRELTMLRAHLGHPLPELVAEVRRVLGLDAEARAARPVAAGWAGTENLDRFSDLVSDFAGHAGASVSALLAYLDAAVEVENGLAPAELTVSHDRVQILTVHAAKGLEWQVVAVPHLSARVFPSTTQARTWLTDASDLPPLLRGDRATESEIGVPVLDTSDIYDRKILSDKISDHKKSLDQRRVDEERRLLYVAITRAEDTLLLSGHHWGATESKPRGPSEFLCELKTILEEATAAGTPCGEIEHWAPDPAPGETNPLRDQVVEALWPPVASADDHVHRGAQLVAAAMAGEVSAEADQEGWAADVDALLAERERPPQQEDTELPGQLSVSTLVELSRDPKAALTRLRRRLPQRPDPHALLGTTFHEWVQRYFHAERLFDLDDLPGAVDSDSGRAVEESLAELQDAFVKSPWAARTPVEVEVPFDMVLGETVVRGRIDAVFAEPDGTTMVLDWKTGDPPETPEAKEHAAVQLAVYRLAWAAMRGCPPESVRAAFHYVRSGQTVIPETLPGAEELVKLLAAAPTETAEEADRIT
# Sequence (A0QTR9 entry or part of it): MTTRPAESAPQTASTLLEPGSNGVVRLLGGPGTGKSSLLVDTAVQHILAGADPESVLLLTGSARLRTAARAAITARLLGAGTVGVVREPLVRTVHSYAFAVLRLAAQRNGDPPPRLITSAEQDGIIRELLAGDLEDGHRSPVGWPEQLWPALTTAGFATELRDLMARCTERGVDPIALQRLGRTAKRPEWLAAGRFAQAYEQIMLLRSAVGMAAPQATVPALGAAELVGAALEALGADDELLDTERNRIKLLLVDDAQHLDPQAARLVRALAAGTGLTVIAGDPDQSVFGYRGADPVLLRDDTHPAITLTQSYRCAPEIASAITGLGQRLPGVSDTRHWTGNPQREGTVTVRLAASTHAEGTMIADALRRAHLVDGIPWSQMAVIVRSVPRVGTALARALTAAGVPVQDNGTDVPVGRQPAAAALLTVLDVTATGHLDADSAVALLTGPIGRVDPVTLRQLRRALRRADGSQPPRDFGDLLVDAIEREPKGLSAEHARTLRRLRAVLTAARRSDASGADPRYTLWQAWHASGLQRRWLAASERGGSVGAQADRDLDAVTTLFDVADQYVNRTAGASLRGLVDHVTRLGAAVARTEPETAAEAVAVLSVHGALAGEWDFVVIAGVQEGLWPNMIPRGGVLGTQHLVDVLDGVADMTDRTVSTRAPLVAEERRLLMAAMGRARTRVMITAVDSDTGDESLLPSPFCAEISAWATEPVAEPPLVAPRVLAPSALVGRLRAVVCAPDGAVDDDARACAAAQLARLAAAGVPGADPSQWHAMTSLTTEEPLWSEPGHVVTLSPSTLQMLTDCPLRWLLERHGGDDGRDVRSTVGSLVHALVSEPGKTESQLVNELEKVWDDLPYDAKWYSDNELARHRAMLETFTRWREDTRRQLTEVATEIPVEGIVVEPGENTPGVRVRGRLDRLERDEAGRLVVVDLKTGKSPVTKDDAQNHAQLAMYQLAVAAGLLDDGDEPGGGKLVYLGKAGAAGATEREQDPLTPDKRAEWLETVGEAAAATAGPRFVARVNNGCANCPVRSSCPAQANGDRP
# ASSAY_PROTOCOL: Purified AddAB nuclease assay
# RUN_CONDITIONS: purified enzyme; read-out: Nuclease IC50, M. smeg AddAB
PROPERTY_MEASURED: IC50 (µM)
Report as a plain number; the unit µM is understood.

Previously resolved entries follow.
CCn1cc(C(=O)O)c(=O)c2cc(F)c(N3CCN(C(=S)Nc4cccc(C(F)(F)F)c4)CC3)cc21 [Compound 50]: 31
COc1c(N2CCN(C(=S)Nc3cccc(C(F)(F)F)c3)C(C)C2)c(F)cc2c(=O)c(C(=O)O)cn(C3CC3)c12 (stereo not shown) [Compound 58]: 3.4

Problem: What value of IC50 has been reported for the following molecule? COc1c(N2CC3CCCN(C(=S)Nc4cccc(C(F)(F)F)c4)C3C2)c(F)cc2c(=O)c(C(=O)O)cn(C3CC3)c12 (stereo not shown) [Compound 151]
Solution: 3.8

Problem: What value of IC50 has been reported for the following molecule? O=C(O)c1cn(-c2ccc(F)cc2)c2cc(N3CCN(C(=S)Nc4cccc(C(F)(F)F)c4)CC3)c(F)cc2c1=O [Compound 148]
Solution: 3.3
